targetEntity: Hepatitis C virus serine protease, NS3/NS4A (Hepatitis C virus, UniProt A3EZI9+D2K2A8)
assayNotes: Inhibition of HCV GT-3a NS3/4a protease using Ac-DE-D(Edans)-EE-Abu-c-[COO]-AS-K(Dabcy1)-NH2 preincubated for 1 hr followed by substrate addition
Type: protein-complex assay, Hepatitis C virus subtype 3a
attributeMeasured: Ki (nM)
Express your answer in nM, writing the number without its unit.

{"structureAsSmiles": "COc1ccc2nc(O[C@@H]3C[C@H]4C(=O)N[C@]5(C(=O)NS(=O)(=O)C6(C)CC6)C[C@H]5/C=C/CCCCC[C@H](NC(=O)OC5(C)CCC5)C(=O)N4C3)c(C(F)(F)F)nc2c1", "targetEntity": "Hepatitis C virus serine protease, NS3/NS4A (Hepatitis C virus, UniProt A3EZI9+D2K2A8)", "unitLabel": "nM", "measurement": 283}

In plain terms, `COc1ccc2nc(C)c(O[C@@H]3C[C@H]4C(=O)N[C@]5(C(=O)NS(=O)(=O)C6(C)CC6)C[C@H]5/C=C/CCCCC[C@H](NC(=O)OC5(C(F)(F)F)CCC5)C(=O)N4C3)nc2c1` has a documented Ki of 96

In plain terms, `COc1ccc2nc(O[C@@H]3C[C@H]4C(=O)N[C@]5(C(=O)NS(=O)(=O)C6(C)CC6)C[C@H]5/C=C/CCCCC[C@H](NC(=O)OC5(C)CCCC5)C(=O)N4C3)c(C(F)(F)F)nc2c1` has a documented Ki of 161
